system: AMPK; test: AMPK activation assay (western blot phospho-AMPK Thr172) in 3T3-L1; assay type: cell-based, mouse; conditions: 3T3-L1 cells, 1 microM, 30 min treatment
Catalogue of molecules with associated AMPK activation (% to control) 3T3-L1
readout_kind: AMPK activation (% to control) 3T3-L1

{"molecule": "Oc1ncnc2nc[nH]c12 [6-hydroxypurine]", "result": "118 % to control"}
{"molecule": "Cc1c[nH]c(=O)[nH]c1=O", "result": "109 % to control"}
{"molecule": "Nc1nc2nc[nH]c2c(=O)[nH]1", "result": "107 % to control"}
{"molecule": "O=c1[nH]c(Br)nc2nc[nH]c12", "result": "111 % to control"}
{"molecule": "Nc1nc(S)nc2nc[nH]c12", "result": "112 % to control"}
{"molecule": "Nc1nc(Cl)nc2nc[nH]c12", "result": "118 % to control"}
{"molecule": "Oc1nc(S)nc2nc[nH]c12 [Example 2-mercapto-6-hydroxypurine, 2-mercapto-6-hydroxypurine]", "result": "115 % to control"}
{"molecule": "Cc1nc(O)c2[nH]cnc2n1 [Example 2-methyl-6-hydroxypurine, 2-methyl-6-hydroxypurine]", "result": "112 % to control"}
{"molecule": "c1nc(NC2CCCCC2)c2[nH]cnc2n1", "result": "107 % to control"}

* * *

Catalogue of compounds with associated AMPK activation (% to control) Hep G2
tested on: AMPK; assay: AMPK activation assay (western blot phospho-AMPK Thr172) in Hep G2; type: cell-based, human; details: Hep G2 cells, 100 microM, 30 min treatment

{"compound": "Oc1nc(O)c2[nH]cnc2n1 [2,6-dihydroxypurine]", "test_target": "AMPK", "AMPK activation (% to control) Hep G2": "198 % to control"}
{"compound": "Nc1nc(Br)nc2nc[nH]c12", "test_target": "AMPK", "AMPK activation (% to control) Hep G2": "253 % to control"}
{"compound": "Nc1nc(O)nc2nc[nH]c12 [Example 2-hydroxyadenine, 2-hydroxyadenine]", "test_target": "AMPK", "AMPK activation (% to control) Hep G2": "220 % to control"}
{"compound": "Clc1cccc(Nc2ncnc3nc[nH]c23)c1", "test_target": "AMPK", "AMPK activation (% to control) Hep G2": "212 % to control"}
{"compound": "CNc1nc(O)nc2nc[nH]c12 [Example 2-hydroxy-6-methylaminopurine, 2-hydroxy-6-methylaminopurine]", "test_target": "AMPK", "AMPK activation (% to control) Hep G2": "266 % to control"}
{"compound": "O=C1CCNC(=O)N1 [5,6-dihydrouracil]", "test_target": "AMPK", "AMPK activation (% to control) Hep G2": "274 % to control"}
{"compound": "Cc1c[nH]c(=O)[nH]c1=O", "test_target": "AMPK", "AMPK activation (% to control) Hep G2": "218 % to control"}
{"compound": "CNc1ncnc2nc[nH]c12", "test_target": "AMPK", "AMPK activation (% to control) Hep G2": "259 % to control"}
{"compound": "CN(C)c1nc(O)c2[nH]cnc2n1 [Example 2-Dimethylamino-6-hydroxypurine, 2-Dimethylamino-6-hydroxypurine]", "test_target": "AMPK", "AMPK activation (% to control) Hep G2": "185 % to control"}
{"compound": "Oc1nc(NC2CCCCC2)nc2nc[nH]c12 [2-cyclohexylamino-6-hydroxypurine]", "test_target": "AMPK", "AMPK activation (% to control) Hep G2": "248 % to control"}
{"compound": "CNc1nc(N)nc2nc[nH]c12", "test_target": "AMPK", "AMPK activation (% to control) Hep G2": "230 % to control"}
{"compound": "Nc1nc(F)nc2nc[nH]c12", "test_target": "AMPK", "AMPK activation (% to control) Hep G2": "259 % to control"}
{"compound": "Sc1nc(S)c2[nH]cnc2n1", "test_target": "AMPK", "AMPK activation (% to control) Hep G2": "244 % to control"}
{"compound": "O=c1[nH]c(Br)nc2nc[nH]c12", "test_target": "AMPK", "AMPK activation (% to control) Hep G2": "242 % to control"}
{"compound": "c1nc(NC2CCCCC2)c2[nH]cnc2n1", "test_target": "AMPK", "AMPK activation (% to control) Hep G2": "261 % to control"}
{"compound": "COc1cc(CNc2nc(C)nc3nc[nH]c23)cc(OC)c1OC", "test_target": "AMPK", "AMPK activation (% to control) Hep G2": "270 % to control"}
{"compound": "O=c1cn[nH]c(=O)[nH]1", "test_target": "AMPK", "AMPK activation (% to control) Hep G2": "199 % to control"}
